Where do these numbers come from? They come from ChEMBL document CHEMBL1165848.

# pIC50 listing for each entry below
target_system: Cholesteryl ester transfer protein (Oryctolagus cuniculus, UniProt P22687)
Sequence (P22687 whole entry): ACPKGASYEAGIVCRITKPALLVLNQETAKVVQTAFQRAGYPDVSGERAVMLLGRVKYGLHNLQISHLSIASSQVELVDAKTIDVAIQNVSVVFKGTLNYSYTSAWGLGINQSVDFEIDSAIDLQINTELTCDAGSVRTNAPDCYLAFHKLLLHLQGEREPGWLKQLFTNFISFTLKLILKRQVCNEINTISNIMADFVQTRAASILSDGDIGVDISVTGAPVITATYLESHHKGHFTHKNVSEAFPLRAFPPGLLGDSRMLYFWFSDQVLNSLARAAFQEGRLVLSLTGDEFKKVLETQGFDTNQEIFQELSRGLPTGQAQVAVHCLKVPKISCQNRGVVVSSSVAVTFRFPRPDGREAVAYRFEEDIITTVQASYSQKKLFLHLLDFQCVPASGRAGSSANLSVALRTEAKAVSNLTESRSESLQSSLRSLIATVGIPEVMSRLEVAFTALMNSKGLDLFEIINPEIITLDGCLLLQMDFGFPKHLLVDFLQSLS
experimental_details: Inhibition of CETP in rabbit serum after 1 hr by fluorescent cholesteryl esters transfer assay
condition_context: read-out: IC50
Give only the number. pIC50 is defined as minus log10 of concentration in molar units.

# example entries with known answers
compound	target_system	measured_quantity	reported_measurement
COc1cc(N(Cc2cccc(SC(F)(F)F)c2)C[C@@H](O)C(F)(F)F)cc(OC)c1OC	Cholesteryl ester transfer protein (Oryctolagus cuniculus, UniProt P22687)	pIC50	5.30
Cc1cccnc1-c1cccc(CN(CC(O)C(F)(F)F)c2cccc(Oc3ccccc3)c2)c1 (centres undefined)	Cholesteryl ester transfer protein (Oryctolagus cuniculus, UniProt P22687)	pIC50	4.82
O=[N+]([O-])c1c(F)cccc1Oc1cccc(N(Cc2cccc(OC(F)(F)C(F)F)c2)CC(O)C(F)(F)F)c1 (centres undefined)	Cholesteryl ester transfer protein (Oryctolagus cuniculus, UniProt P22687)	pIC50	7.00
OC(CN(Cc1cccc(C(F)(F)F)c1)c1ccccc1)C(F)(F)F (centres undefined)	Cholesteryl ester transfer protein (Oryctolagus cuniculus, UniProt P22687)	pIC50	4.82
Cc1cccc(Oc2cccc(N(Cc3cccc(OC(F)(F)C(F)F)c3)CC(O)C(F)(F)F)c2)c1 (centres undefined)	Cholesteryl ester transfer protein (Oryctolagus cuniculus, UniProt P22687)	pIC50	7.05

Consider the additional compound presented here.
Ask: Suppose we examine the compound CCc1cc(Oc2cccc(N(Cc3cc(C(F)(F)F)ccc3F)C[C@@H](O)C(F)(F)F)c2)ccc1Cl ; what pIC50 value has been reported?
Result: 7.31

* * *

# pIC50 listing for each entry below
target_system: Cholesteryl ester transfer protein (Oryctolagus cuniculus, UniProt P22687)
experimental_details: Inhibition of CETP in rabbit serum after 1 hr by fluorescent cholesteryl esters transfer assay
condition_context: read-out: IC50
Give only the number. pIC50 is defined as minus log10 of concentration in molar units.

Ask: Cholesteryl ester transfer protein (Oryctolagus cuniculus, UniProt P22687) / pIC50 / Cc1ccc(CN(CC(O)C(F)(F)F)c2cccc(Oc3ccccc3)c2)cc1-c1ccco1 (centres undefined) : value?
Result: 5.40

Ask: How about Cc1cccc(N(Cc2cccc(C(F)(F)F)c2)CC(O)C(F)(F)F)c1 (centres undefined) ?
Result: 5.00

Ask: How about CC(C)Cc1cccc(CN(CC(O)C(F)(F)F)c2cccc(Oc3ccccc3)c2)c1 (centres undefined) ?
Result: 6.27

Ask: How about OC(CN(Cc1cccc(OC(F)(F)C(F)F)c1)c1cccc(Oc2cc(F)cc(F)c2)c1)C(F)(F)F (centres undefined) ?
Result: 6.70

Ask: How about Cc1ccc(Oc2cccc(N(Cc3cccc(OC(F)(F)C(F)F)c3)CC(O)C(F)(F)F)c2)cc1C (centres undefined) ?
Result: 7.10

* * *

target_system: Cholesteryl ester transfer protein (Oryctolagus cuniculus, UniProt P22687)
experimental_details: Inhibition of CETP in rabbit serum after 1 hr by fluorescent cholesteryl esters transfer assay
condition_context: read-out: IC50
# pIC50 listing for each entry below
Give only the number. pIC50 is defined as minus log10 of concentration in molar units.

# example entries with known answers
compound	reported_measurement
Cc1cc(Oc2cccc(N(Cc3cccc(OC(F)(F)C(F)F)c3)CC(O)C(F)(F)F)c2)ccc1Cl (centres undefined)	6.70
OC(CN(Cc1cccc(OC(F)(F)C(F)F)c1)c1cccc(Oc2cccc(F)c2F)c1)C(F)(F)F (centres undefined)	7.00
OC(CN(Cc1cccc(OC(F)(F)C(F)F)c1)c1cccc(Oc2ccc(Cc3ccccc3)cc2)c1)C(F)(F)F (centres undefined)	5.62

Consider the additional compound presented here.
Ask: Suppose we examine the compound OC(CN(Cc1cccc(OC(F)(F)C(F)F)c1)c1cccc(OCc2ccccc2)c1)C(F)(F)F (centres undefined) ; what pIC50 value has been reported?
Result: 6.70
